- SYSTEM_NAME: EPHA3 (human) (UniProt P29320)
- Sequence (P29320 whole entry, looked up): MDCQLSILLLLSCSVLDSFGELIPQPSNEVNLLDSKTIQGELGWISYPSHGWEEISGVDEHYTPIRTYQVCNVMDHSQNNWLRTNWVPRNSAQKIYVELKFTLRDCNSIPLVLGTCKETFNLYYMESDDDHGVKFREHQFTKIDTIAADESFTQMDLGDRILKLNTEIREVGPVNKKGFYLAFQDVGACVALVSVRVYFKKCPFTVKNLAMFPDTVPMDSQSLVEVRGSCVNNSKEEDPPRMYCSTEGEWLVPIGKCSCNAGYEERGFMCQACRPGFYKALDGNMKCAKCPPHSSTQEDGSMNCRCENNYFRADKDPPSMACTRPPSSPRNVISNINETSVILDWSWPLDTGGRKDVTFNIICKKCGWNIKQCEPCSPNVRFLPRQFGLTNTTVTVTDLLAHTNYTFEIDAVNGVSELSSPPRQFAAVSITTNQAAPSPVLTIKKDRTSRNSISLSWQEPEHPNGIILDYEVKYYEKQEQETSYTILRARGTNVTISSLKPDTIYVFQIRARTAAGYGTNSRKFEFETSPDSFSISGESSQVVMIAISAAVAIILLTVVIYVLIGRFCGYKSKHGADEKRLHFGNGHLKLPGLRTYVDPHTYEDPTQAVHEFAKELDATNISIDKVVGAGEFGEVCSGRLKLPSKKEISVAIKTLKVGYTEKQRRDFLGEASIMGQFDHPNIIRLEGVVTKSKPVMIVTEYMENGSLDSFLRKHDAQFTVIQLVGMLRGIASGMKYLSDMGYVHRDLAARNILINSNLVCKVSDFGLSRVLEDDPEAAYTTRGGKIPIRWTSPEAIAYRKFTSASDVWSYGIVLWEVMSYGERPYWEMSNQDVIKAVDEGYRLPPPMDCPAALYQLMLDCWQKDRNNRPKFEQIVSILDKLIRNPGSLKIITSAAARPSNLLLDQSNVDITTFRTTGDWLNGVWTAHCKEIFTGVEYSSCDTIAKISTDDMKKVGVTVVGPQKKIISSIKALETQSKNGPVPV
- PROCEDURE_SUMMARY: radiometric filter-binding kinase assay, Kinase HotSpot
- CONDITION_CONTEXT: compound 0.5 µM; ATP 10 µM
REPORTED_PROPERTY: residual activity (%)
Give just the numeric value; % need not be written.

In: residual activity lookup needed for "Cc1cncc2cccc(S(=O)(=O)N3CCCN(C(=O)CN)C[C@H]3C)c12" , thanks.
Out: 98.7

In: Also, "NC(=O)c1cccc(-c2cc(Nc3ccc(OC(F)(F)F)cc3)ncn2)c1" please.
Out: 97.5

In: Also, "Ic1cccc(CSc2nnc(-c3ccncc3)o2)c1" please.
Out: 111

In: Also, "COc1ccc2c(c1)c(C1=C(c3c[nH]c4ccccc34)C(=O)NC1=O)cn2CCCN(C)C" please.
Out: 94.1

In: Also, "CCCCc1c(-c2ccc(OC)cc2)[nH]c2nccnc12" please.
Out: 91.9

In: Also, "COc1ccc2c(c1)/C(=C/c1cnc[nH]1)C(O)=N2" please.
Out: 93.3

In: Also, "c1ccc2c(-c3ccncc3)c[nH]c2c1" please.
Out: 107

In: Also, "O=C1NC(=O)c2c1c1c3ccccc3[nH]c1n1cncc21" please.
Out: 105
